- Test system: HT-29
- Protocol summary: Viability assay with HT-29
- Assay type: cell-based
- Test settings: HT-29, viability assay per Example 57
pEC50: −log10 of the molar value. Where a name gives a salt, the structure may show the parent alone.
Recorded pEC50 by entry

Worked set:
[[record]]
compound = "NCCCn1nc(-c2ccc(OC(F)(F)F)cc2)c2cc(CN3CCN(Cc4ccccc4Cl)CC3)ccc21 [C178; HCl]"
readout_type = "pEC50"
result = "≥ 5.30"

[[record]]
compound = "NC1(C(=O)NCCCn2nc(-c3ccc(OC(F)(F)F)cc3)c3cc(CN4CCN(Cc5ccccc5Cl)CC4)ccc32)CCNCC1 [C201; HCl]"
readout_type = "pEC50"
result = "≥ 5.30"

[[record]]
compound = "NCCCn1cc(-c2ccc(OC(F)(F)F)cc2CN)c2cc(CN3CCN(Cc4cccc(OC(F)(F)F)c4)CC3)ccc21 [C267; HCl]"
readout_type = "pEC50"
result = "≥ 5.30"

[[record]]
compound = "NCc1ccc(-n2cc(-c3ccc(OC(F)(F)F)cc3)c3cc(CN4CCN(Cc5ccccc5Cl)CC4)ccc32)cc1"
readout_type = "pEC50"
result = "≥ 5.30"

[[record]]
compound = "NCCCn1cc(-c2cc[nH]n2)c2cc(CN3CCN(Cc4ccccc4Cl)CC3)ccc21 [C190; HCl]"
readout_type = "pEC50"
result = "5.00 to 5.30"

[[record]]
compound = "NCCCn1cc(-c2ccc(OC(F)(F)F)cc2CN)c2cc(CN3CCCC(N)C3)ccc21 (stereo not shown) [C259; HCl]"
readout_type = "pEC50"
result = "5.00 to 5.30"

[[record]]
compound = "NCC(=O)N1CCC(n2cc(-c3ccc(OC(F)(F)F)cc3)c3cc(CN4CCN(Cc5ccccc5Cl)CC4)ccc32)CC1 [C203; HCl]"
readout_type = "pEC50"
result = "≥ 5.30"

[[record]]
compound = "FC(F)(F)Oc1ccc(-c2cn(C3CCNCC3)c3ccc(CN4CCC(Cc5ccccc5Cl)CC4)cc23)cc1 [C225; HCl]"
readout_type = "pEC50"
result = "≥ 5.30"

[[record]]
compound = "CCC1CCN(S(=O)(=O)c2ccc3c(c2)c(-c2ccc(OC)cc2CN)cn3CCCN)CC1 [C270; HCl]"
readout_type = "pEC50"
result = "≥ 5.30"

[[record]]
compound = "NCCCn1cc(-c2ccc(OC(F)(F)F)cc2CN)c2cc(S(=O)(=O)N3CCC(Nc4cccc(Cl)c4)CC3)ccc21"
readout_type = "pEC50"
result = "5.00 to 5.30"


I have this compound here, "COc1cccc(CC2CN(Cc3ccc4c(c3)c(-c3ccc(OC(F)(F)F)cc3CN)cn4CCCN)C2)c1" , and I need its recorded pEC50.
≥ 5.30

I have this compound here, CC1CCN(Cc2ccc3c(c2)c(-c2ccc(OC(F)(F)F)cc2CN)cn3CCCN)CC1 [C257; HCl] , and I need its recorded pEC50.
≥ 5.30

I have this compound here, NCCCn1cc(-c2ccc(OC(F)(F)F)cc2)c2cc(CN3CCN(Cc4ccc(Cl)c(Cl)c4)CC3)ccc21 [C138; HCl] , and I need its recorded pEC50.
≥ 5.30
